- System: DFO2036
- assay_notes: qHTS profiling for inhibitors of Plasmodium falciparum proliferation (AID 504749); note: nearly all actives have a fitted effect of over 60% in size
- experimental_parameters: P. falciparum in erythrocytes, SYBR Green DNA, 72 h; series mostly up to 28.7 µM
Results filed as inconclusive are left out. Activity calls are given as the source filed them. Calls come from the whole dose curve; as a rule, active = well fitted inhibition curve with a large enough effect; inconclusive = small, poorly fitted or top-dose-only effect; inactive = flat fitted curve, though single readings scatter.
In this exercise, the only acceptable responses are 1 (yes) = active, 0 (no) = inactive

compound	category
C=CC1CN2CCC1CC2C(OC(=O)OCC)c1ccnc2ccc(OC)cc12 (centres undefined)	1 (yes)
CNC[C@H](O)c1ccc(O)cc1	0 (no)
CCC(C)C1O[C@]2(C=CC1C)CC1CC(C/C=C(\C)[C@H](OC3CC(OC)C(O[C@H]4CC(OC)[C@@H](O)C(C)O4)C(C)O3)[C@@H](C)/C=C/C=C3\COC4C(O)C(C)=C[C@H](C(=O)O1)[C@@]34O)O2 (some centres undefined)	1 (yes)

For the next question, use this compound.
Called result for C[C@]12CC[C@H](O)C[C@H]1CCC1C2CC[C@]2(C)[C@@H](c3ccc(=O)oc3)C[C@H]3O[C@]132 (some centres undefined)
0 (no)

* * *

- assay_notes: KB-8-5-11 P-gp reporter qHTS against the NCATS DSHEA and TCM libraries (AID 1919977); note: 0% is about no effect
- experimental_parameters: KB-8-5-11 cells; series mostly up to 26.1 µM
Records with an inconclusive call do not appear. Calls of active or inactive are those of the source. The call rests on the fitted dose curve; in most records, active means well fitted curve in the direction sought with a large enough effect; inconclusive means small, poorly fitted or top-dose-only effect, or another doubt; inactive means no such curve, though single readings can be large or run the other way.
property_label: activity change, negative = inhibition

Sample answers from the record:
compound	activity change, negative = inhibition
CC/C=C\C/C=C\C/C=C\C/C=C\CCCCC(=O)O	-0.921% [at 3.26 µM] (inactive)
C=C1C[C@@]23CC[C@H]4[C@](C)(CCC[C@]4(C)C(=O)O[C@@H]4O[C@H](CO)[C@@H](O)[C@H](O)[C@H]4O)[C@@H]2CC[C@]1(O[C@H]1O[C@@H](CO)[C@H](O)[C@@H](O)[C@@H]1O)C3	inactive
COc1ccc2ccc(=O)oc2c1	inactive
COc1cc2c(cc1O)CC1NCCc3cc(OC)c(OC)c-2c31 (stereo not drawn)	inactive
COC1=C[C@@]23CCN(C)[C@H](Cc4ccc(OC)c(O)c42)C3=CC1=O	inactive

Query (compound): "CC1=CC[C@H](C(C)C)C=C1" ; field requested: activity change, negative = inhibition
inactive

Query (compound): "O=c1cc(-c2ccc(O)cc2)oc2cc(O[C@@H]3O[C@H](CO)[C@@H](O)[C@H](O)[C@H]3O[C@@H]3OC[C@](O)(CO)[C@H]3O)cc(O)c12" ; field requested: activity change, negative = inhibition
inactive

Query (compound): "COc1cc2c(cc1O)C[C@H]1c3c(cc(OC)c(O)c3-2)CCN1C" ; field requested: activity change, negative = inhibition
inactive

Query (compound): CC(C)=CCC[C@](C)(O[C@@H]1O[C@H](CO[C@@H]2O[C@H](CO)[C@@H](O)[C@H](O)[C@H]2O)[C@@H](O)[C@H](O)[C@H]1O)C1CC[C@]2(C)[C@@H]1[C@H](O)CC1[C@@]3(C)CC[C@H](O[C@@H]4O[C@H](CO)[C@@H](O)[C@H](O)[C@H]4O[C@@H]4O[C@H](CO)[C@@H](O)[C@H](O)[C@H]4O)C(C)(C)[C@@H]3CC[C@]12C (stereo partly drawn) ; field requested: activity change, negative = inhibition
14.6% [at 5.42 µM] (inactive)

Query (compound): C[C@@H]1OC(O[C@H]2[C@H](O)[C@@H](O)[C@H](OC[C@H]3O[C@@H](OC(=O)[C@]45CCC(C)(C)C[C@@H]4C4=CCC6[C@@]7(C)CC[C@H](OC8OC[C@H](O)[C@H](O)[C@H]8OC8O[C@@H](C)[C@H](O)[C@@H](O)[C@H]8O)[C@@](C)(CO)C7CC[C@@]6(C)[C@]4(C)CC5)[C@H](O)[C@@H](O)[C@@H]3O)O[C@@H]2CO)[C@H](O)[C@H](O)[C@H]1O (stereo partly drawn) ; field requested: activity change, negative = inhibition
inactive
